Molecular target: UniProt:P00533
Sequence (P00533 whole entry): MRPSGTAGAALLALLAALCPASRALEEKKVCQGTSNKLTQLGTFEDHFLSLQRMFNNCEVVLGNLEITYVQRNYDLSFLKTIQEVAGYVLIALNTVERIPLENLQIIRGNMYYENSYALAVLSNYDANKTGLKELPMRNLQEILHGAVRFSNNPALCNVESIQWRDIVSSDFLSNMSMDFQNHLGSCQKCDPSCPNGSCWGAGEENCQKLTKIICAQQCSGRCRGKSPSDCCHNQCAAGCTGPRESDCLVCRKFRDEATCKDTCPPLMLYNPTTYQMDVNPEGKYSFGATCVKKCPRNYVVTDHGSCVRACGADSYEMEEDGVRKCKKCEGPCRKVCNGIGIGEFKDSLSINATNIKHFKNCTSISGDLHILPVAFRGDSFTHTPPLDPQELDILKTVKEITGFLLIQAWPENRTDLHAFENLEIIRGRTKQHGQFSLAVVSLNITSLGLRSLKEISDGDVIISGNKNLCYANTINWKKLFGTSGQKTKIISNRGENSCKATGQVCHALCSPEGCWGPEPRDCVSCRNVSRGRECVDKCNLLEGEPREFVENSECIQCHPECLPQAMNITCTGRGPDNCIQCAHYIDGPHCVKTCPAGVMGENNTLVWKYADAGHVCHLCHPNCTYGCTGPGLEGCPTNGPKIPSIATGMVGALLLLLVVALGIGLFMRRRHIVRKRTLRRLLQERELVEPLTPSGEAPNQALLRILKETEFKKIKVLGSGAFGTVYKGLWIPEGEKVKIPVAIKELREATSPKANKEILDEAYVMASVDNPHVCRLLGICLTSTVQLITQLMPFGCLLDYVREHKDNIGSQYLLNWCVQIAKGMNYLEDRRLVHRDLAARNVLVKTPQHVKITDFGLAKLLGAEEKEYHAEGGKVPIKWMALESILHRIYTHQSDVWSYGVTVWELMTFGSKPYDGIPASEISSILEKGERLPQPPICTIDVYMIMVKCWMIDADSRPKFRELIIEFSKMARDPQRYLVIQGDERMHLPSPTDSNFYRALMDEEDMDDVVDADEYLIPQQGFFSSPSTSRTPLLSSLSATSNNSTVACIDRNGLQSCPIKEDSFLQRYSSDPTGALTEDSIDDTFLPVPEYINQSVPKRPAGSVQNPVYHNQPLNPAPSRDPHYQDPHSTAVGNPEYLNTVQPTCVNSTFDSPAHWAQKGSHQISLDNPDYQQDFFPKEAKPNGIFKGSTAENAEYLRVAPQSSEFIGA
measure: IC50 (µM)
Lab book: enter the figure in µM, no units written.

Bench note: what IC50 did `Nc1nc(Nc2ccc(F)c(Br)c2)c2cc(CCc3ccccc3)[nH]c2n1` show?
22.8

* * *

# maps each entry to its pIC50
Molecular target: Vascular endothelial growth factor receptor 2 (Homo sapiens, UniProt P35968)
Sequence (P35968 whole entry): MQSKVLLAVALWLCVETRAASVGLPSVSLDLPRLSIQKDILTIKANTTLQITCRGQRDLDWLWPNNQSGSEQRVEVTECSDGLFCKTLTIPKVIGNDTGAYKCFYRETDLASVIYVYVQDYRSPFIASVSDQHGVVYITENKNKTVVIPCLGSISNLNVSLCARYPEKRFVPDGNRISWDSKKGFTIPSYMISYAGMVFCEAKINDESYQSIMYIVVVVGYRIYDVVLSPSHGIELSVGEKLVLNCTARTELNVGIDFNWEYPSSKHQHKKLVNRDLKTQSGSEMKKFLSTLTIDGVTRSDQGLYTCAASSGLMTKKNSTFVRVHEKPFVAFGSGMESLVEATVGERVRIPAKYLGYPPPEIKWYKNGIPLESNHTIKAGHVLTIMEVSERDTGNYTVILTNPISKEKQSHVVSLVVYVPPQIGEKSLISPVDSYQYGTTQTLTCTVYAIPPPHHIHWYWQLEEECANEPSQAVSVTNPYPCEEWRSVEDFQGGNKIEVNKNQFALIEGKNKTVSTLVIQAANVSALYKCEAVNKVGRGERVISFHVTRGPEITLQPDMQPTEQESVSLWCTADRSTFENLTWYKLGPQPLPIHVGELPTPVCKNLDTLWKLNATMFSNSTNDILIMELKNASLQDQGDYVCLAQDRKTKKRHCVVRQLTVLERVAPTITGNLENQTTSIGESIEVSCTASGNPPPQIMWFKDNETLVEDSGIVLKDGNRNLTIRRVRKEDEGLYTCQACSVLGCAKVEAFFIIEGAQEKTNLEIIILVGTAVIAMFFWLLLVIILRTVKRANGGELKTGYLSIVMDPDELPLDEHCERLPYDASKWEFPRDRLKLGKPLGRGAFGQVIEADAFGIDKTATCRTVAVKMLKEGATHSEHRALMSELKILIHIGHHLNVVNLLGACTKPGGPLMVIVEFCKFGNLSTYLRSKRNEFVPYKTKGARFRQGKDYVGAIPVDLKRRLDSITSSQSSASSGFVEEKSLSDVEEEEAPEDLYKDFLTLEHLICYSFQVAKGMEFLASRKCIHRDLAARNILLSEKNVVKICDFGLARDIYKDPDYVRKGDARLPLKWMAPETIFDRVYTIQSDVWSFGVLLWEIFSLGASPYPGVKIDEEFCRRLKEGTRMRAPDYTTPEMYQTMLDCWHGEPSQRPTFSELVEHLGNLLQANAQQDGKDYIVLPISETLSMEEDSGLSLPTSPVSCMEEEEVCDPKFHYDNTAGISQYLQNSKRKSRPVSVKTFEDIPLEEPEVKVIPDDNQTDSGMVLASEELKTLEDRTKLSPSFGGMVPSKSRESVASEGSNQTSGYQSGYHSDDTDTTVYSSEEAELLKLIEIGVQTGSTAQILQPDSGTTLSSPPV
Test: cell-based
Scale explanation: pIC50 corresponds to minus log10 of a concentration expressed in moles per litre.

Some compounds with recorded pIC50:
record_smiles: c1ccc(CCc2cc3c(Nc4ccc5[nH]ccc5c4)ncnc3[nH]2)cc1
pIC50: 4.50

record_smiles: Fc1cc(Cl)ccc1Nc1ncnc2[nH]c(CCc3ccccc3)cc12
pIC50: 4.39

record_smiles: Fc1ccc(Nc2ncnc3[nH]c(CCc4ccccc4)cc23)cc1Br
pIC50: 4.60

record_smiles: Brc1cccc(Nc2ncnc3[nH]c(CCc4ccccc4)cc23)c1
pIC50: 3.95

record_smiles: C#Cc1cccc(Nc2ncnc3[nH]c(CCc4ccccc4)cc23)c1
pIC50: 4.31

Bench note: what pIC50 did `FC(F)(F)c1cccc(Nc2ncnc3[nH]c(CCc4ccccc4)cc23)c1` show?
4.66

Next compound: `Fc1ccc(Nc2ncnc3[nH]c(CCc4ccccc4)cc23)cc1C(F)(F)F`
4.24

Source: ChEMBL document CHEMBL1157122
